assay details: in vivo
applied conditions: mouse, ip
measured parameter: LD50

- NC(CCCCNC1=C(C(=S)S)CCC1)C(=O)O (stereo not shown): ~900 mg/kg
- OCCNC1=C(C(=S)S)CCC1: ~800 mg/kg
- C=CCNC1=C(C(=S)S)CCC1: ~500 mg/kg
- NC(CCCNC1=C(C(=S)S)CCC1)C(=O)O (stereo not shown): ~700 mg/kg
- S=C(S)C1=C(Nc2ccccc2)CCC1: > 1000 mg/kg
- S=C(S)C1=C(NC2CCCCC2)CCC1: > 1000 mg/kg
- COCCNC1=C(C(=S)S)CCC1: ~400 mg/kg

* * *

Test system: dopamine-β-hydroxylase
assay details: Noradrenaline content of spleen (dopamine-β-hydroxylase inhibiting effect)
Format: in vivo, male Wister rats
applied conditions: Rattus norvegicus, ip; rats, i.p., 200 mg/kg, 4 hours, ± Standard Error; read-out: Amine level, spleen NA (noradrenaline)
# if value of response vs control in vivo at 200 mg/kg reaches 90%, tag Condition met; if it stays below, tag Condition not met

• CC(C)CCNC1=C(C(=S)S)CCC1 = Condition met
• S=C(S)C1=C(NC2CCCCC2)CCC1 = Condition met
• OCCNC1=C(C(=S)S)CCC1 = Condition met
• NC(CCCNC1=C(C(=S)S)CCC1)C(=O)O (centres unmarked) = Condition not met
• COCCNC1=C(C(=S)S)CCC1 = Condition met
• S=C(S)C1=C(Nc2ccccc2)CCC1 = Condition not met
• NC(CCCCNC1=C(C(=S)S)CCC1)C(=O)O (centres unmarked) = Condition not met

* * *

Tested on: dopamine-β-hydroxylase
assay details: Adrenaline content of adrenal gland (dopamine-β-hydroxylase inhibiting effect)
Format: in vivo, male Wister rats
applied conditions: Rattus norvegicus, ip; rats, i.p., 100 mg/kg, 4 hours, ± Standard Error; read-out: Amine level, adrenal gland AD (adrenaline)
We begin with a simple list: items and their reported response vs control in vivo at 100 mg/kg.
measured parameter: response vs control in vivo at 100 mg/kg

- COCCNC1=C(C(=S)S)CCC1: 106%
- CC(C)CCNC1=C(C(=S)S)CCC1: 86.2%
- NC(CCCNC1=C(C(=S)S)CCC1)C(=O)O (centres unmarked): 69.4%
- C=CCNC1=C(C(=S)S)CCC1: 103%
- OCCNC1=C(C(=S)S)CCC1: 82.7%

* * *

Test system: dopamine-β-hydroxylase
assay details: Noradrenaline, dopamine, serotonine and 5-hydroxy-indolylacetic acid contents of cerebrum (dopamine-β-hydroxylase inhibiting effect)
Assay type: in vivo, male Wister rats
applied conditions: Rattus norvegicus, ip; rats, i.p., 100 mg/kg, 4 hours, ± Standard Error; read-out: Amine level, cerebrum DA (dopamine)
measured parameter: response vs control in vivo at 100 mg/kg (%)

- CC(C)CCNC1=C(C(=S)S)CCC1: 103
- C=CCNC1=C(C(=S)S)CCC1: 108
- NC(CCCNC1=C(C(=S)S)CCC1)C(=O)O (centres unmarked): 100
- OCCNC1=C(C(=S)S)CCC1: 110
- COCCNC1=C(C(=S)S)CCC1: 107

* * *

assay details: Toxicity (LD50), rats
applied conditions: rat, in vivo, ip
measured parameter: LD50 (mg/kg)

- c1ccc(-c2ccccn2)nc1 [2,2-D, 2,2-dipyridyl, reference compound]: 150

Data origin: patent US4199598A
